# MEASURED_ON: recombinant human 17β-hydroxysteroid dehydrogenase type 1 (Homo sapiens)
# Construct: made in house; host or cells: Sf9 insect cells (baculovirus, Bac to Bac Expression System)
# ASSAY_TEXT: Inhibition of recombinant human 17β-hydroxysteroid dehydrogenase type 1 (3H-estrone to estradiol conversion, HPLC)
# Type: biochemical
# CONDITION_DETAILS: inhibitor concentration 100 nM; read-out: Inhibition of rec. 17β-HSD1 (% inhibition)
Binary classification by inhibition at 0.1 µM, with 50% as an inclusive lower bound for Condition met; all other cases are Condition not met.

Example results:
Could you please find out whether `CCCc1cc2c(cc1O)CC[C@H]1[C@@H]3[C@H](CCCC(=O)N4CCCCC4)CC(=O)[C@@]3(C)CC[C@H]21` has inhibition at 0.1 µM that meets 50% or exceeds it?
Condition met

Could you please find out whether `C[C@]12CC[C@@H]3c4ccc(OS(N)(=O)=O)cc4CC[C@H]3[C@@H]1[C@H](CCCC(=O)N1CCOCC1)CC2=O` has inhibition at 0.1 µM that meets 50% or exceeds it?
Condition not met

Could you please find out whether `CCOc1cc2c(cc1O)CC[C@H]1[C@@H]3[C@@H](CCCC(=O)NCc4ccc5c(c4)OCO5)CC(=O)[C@@]3(C)CC[C@H]21` has inhibition at 0.1 µM that meets 50% or exceeds it?
Condition met

--- query ---
Could you please find out whether `C[C@]12CC[C@@H]3c4ccc(O)cc4CC[C@H]3[C@@H]1[C@H](CCC(=O)NC1CC1)CC2(F)F` has inhibition at 0.1 µM that meets 50% or exceeds it?
Condition not met

* * *

Examples of compounds with documented inhibition at 0.1 µM follow.
# MEASURED_ON: recombinant human 17β-hydroxysteroid dehydrogenase type 1 (Homo sapiens)
# Construct: made in house; host or cells: Sf9 insect cells (baculovirus, Bac to Bac Expression System)
# Sequence (P14061 1-328): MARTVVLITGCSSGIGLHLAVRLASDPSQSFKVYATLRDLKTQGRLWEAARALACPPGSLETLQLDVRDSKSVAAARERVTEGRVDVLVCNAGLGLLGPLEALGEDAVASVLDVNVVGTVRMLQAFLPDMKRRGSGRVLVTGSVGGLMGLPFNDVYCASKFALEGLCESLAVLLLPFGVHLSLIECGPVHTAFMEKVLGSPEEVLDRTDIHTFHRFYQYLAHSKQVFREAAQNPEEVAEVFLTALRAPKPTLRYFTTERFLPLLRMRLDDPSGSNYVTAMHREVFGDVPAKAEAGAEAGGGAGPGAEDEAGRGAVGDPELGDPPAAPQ
# ASSAY_TEXT: Inhibition of recombinant human 17β-hydroxysteroid dehydrogenase type 1 (3H-estrone to estradiol conversion, HPLC)
# Format: biochemical
# CONDITION_DETAILS: inhibitor concentration 100 nM; read-out: Inhibition of rec. 17β-HSD1 (% inhibition)
Your answer should be a plain number; it is taken to be in %.

Which measured inhibition at 0.1 µM value corresponds to `CCOc1cc2c(cc1O)CC[C@H]1[C@@H]3[C@@H](CCCC(=O)NC4CCCCC4)CC(=O)[C@@]3(C)CC[C@H]21` ?
55.5

* * *

# MEASURED_ON: recombinant human 17β-hydroxysteroid dehydrogenase type 1 (Homo sapiens, UniProt P14061)
# Construct: made in house; host or cells: Sf9 insect cells (baculovirus, Bac to Bac Expression System)
# ASSAY_TEXT: Inhibition of recombinant human 17β-hydroxysteroid dehydrogenase type 1 (3H-estrone to estradiol conversion, HPLC)
# Type: biochemical
# CONDITION_DETAILS: 0.5 h; inhibitor concentration 1 μm; read-out: Inhibition of rec. 17β-HSD1 (% inhibition)
MEASURED_METRIC: inhibition at 1 µM (%)
Your answer should be a plain number; it is taken to be in %.

Which measured inhibition at 1 µM value corresponds to `COc1cc2c(cc1O)CC[C@H]1[C@@H]3[C@@H](CCCC(=O)Nc4ccc5cn[nH]c5c4)CC(=O)[C@@]3(C)CC[C@H]21` ?
71.6

Which measured inhibition at 1 µM value corresponds to `C[C@]12CC[C@@H]3c4ccc(O)cc4CC[C@H]3[C@@H]1[C@@H](CCCC(=O)NCc1ccccc1)CC2(F)F` ?
68

Which measured inhibition at 1 µM value corresponds to `C[C@]12CC[C@@H]3c4ccc(O)cc4CC[C@H]3[C@@H]1[C@H](CCCC(=O)N1CCOCC1)c1cn[nH]c12` ?
93

Next:
Which measured inhibition at 1 µM value corresponds to `CCOc1cc2c(cc1O)CC[C@H]1[C@@H]3[C@@H](CCCC(=O)Nc4ccc5cn[nH]c5c4)CC(=O)[C@@]3(C)CC[C@H]21` ?
69.7

Which measured inhibition at 1 µM value corresponds to `C[C@]12CC[C@@H]3c4ccc(OS(N)(=O)=O)cc4CC[C@H]3[C@@H]1[C@H](CCCC(=O)N1CCOCC1)CC2=O` ?
43

Which measured inhibition at 1 µM value corresponds to `CCOc1cc2c(cc1O)CC[C@H]1[C@@H]3[C@@H](CCCC(=O)NCCc4c[nH]c5c(C)cccc45)CC(=O)[C@@]3(C)CC[C@H]21` ?
72.2

Which measured inhibition at 1 µM value corresponds to `Cc1cccc2c(CCNC(=O)CCC[C@H]3CC(F)(F)[C@@]4(C)CC[C@@H]5c6ccc(O)cc6CC[C@H]5[C@H]34)c[nH]c12` ?
68.3

Which measured inhibition at 1 µM value corresponds to `COc1cc2c(cc1O)CC[C@H]1[C@@H]3[C@@H](CCCC(=O)NCc4ccccc4)CC(=O)[C@@]3(C)CC[C@H]21` ?
70.6

* * *

Examples of compounds with documented inhibition at 1 µM follow.
# MEASURED_ON: recombinant human 17β-hydroxysteroid dehydrogenase type 1 (Homo sapiens)
# Construct: made in house; host or cells: Sf9 insect cells (baculovirus, Bac to Bac Expression System)
# ASSAY_TEXT: Inhibition of recombinant human 17β-hydroxysteroid dehydrogenase type 1 (3H-estrone to estradiol conversion, HPLC)
# Format: biochemical
# CONDITION_DETAILS: 0.5 h; inhibitor concentration 1 μm; read-out: Inhibition of rec. 17β-HSD1 (% inhibition)

Identify the measured inhibition at 1 µM of `COc1cc2c(cc1O)CC[C@H]1[C@@H]3[C@@H](CCCC(=O)N4CCCCC4)CC(=O)[C@H]3CC[C@H]21` for recombinant human 17β-hydroxysteroid dehydrogenase type 1 (Homo sapiens).
72%

Identify the measured inhibition at 1 µM of `C[C@]12CC[C@@H]3c4ccc(O)cc4CC[C@H]3[C@@H]1[C@@H](CCCC(=O)NC1CCCCC1)CC2(F)F` for recombinant human 17β-hydroxysteroid dehydrogenase type 1 (Homo sapiens).
70.6%

Identify the measured inhibition at 1 µM of `C[C@]12CC[C@@H]3c4ccc(OS(=O)(=O)O)cc4CC[C@H]3[C@@H]1[C@H](CCCC(=O)N1CCOCC1)CC2=O` for recombinant human 17β-hydroxysteroid dehydrogenase type 1 (Homo sapiens).
27%

* * *

# MEASURED_ON: recombinant human 17β-hydroxysteroid dehydrogenase type 1 (Homo sapiens)
# Construct: made in house; host or cells: Sf9 insect cells (baculovirus, Bac to Bac Expression System)
# ASSAY_TEXT: Inhibition of recombinant human 17β-hydroxysteroid dehydrogenase type 1 (3H-estrone to estradiol conversion, HPLC)
# Type: biochemical
# CONDITION_DETAILS: inhibitor concentration 100 nM; read-out: Inhibition of rec. 17β-HSD1 (% inhibition)
Binary classification by inhibition at 0.1 µM, with 30% as an inclusive lower bound for Yes; all other cases are No.

Example results:
Could you please find out whether `CCCc1cc2c(cc1O)CC[C@H]1[C@@H]3[C@H](CCCC(=O)NCCOC)CC(=O)[C@@]3(C)CC[C@H]21` has inhibition at 0.1 µM that meets 30% or exceeds it?
No

Could you please find out whether `CCCc1cc2c(cc1O)CC[C@H]1[C@@H]3[C@H](CCCC(=O)Nc4ccc5cn[nH]c5c4)CC(=O)[C@@]3(C)CC[C@H]21` has inhibition at 0.1 µM that meets 30% or exceeds it?
Yes

--- query ---
Could you please find out whether `C[C@]12CC[C@@H]3c4ccc(OCc5ccccc5)cc4CC[C@H]3[C@@H]1[C@H](C/C=C/C(=O)N1CCOCC1)c1cnoc12` has inhibition at 0.1 µM that meets 30% or exceeds it?
No

* * *

# MEASURED_ON: recombinant human 17β-hydroxysteroid dehydrogenase type 1 (Homo sapiens, UniProt P14061)
# Construct: made in house; host or cells: Sf9 insect cells (baculovirus, Bac to Bac Expression System)
# ASSAY_TEXT: Inhibition of recombinant human 17β-hydroxysteroid dehydrogenase type 1 (3H-estrone to estradiol conversion, HPLC)
# Assay type: biochemical
# CONDITION_DETAILS: inhibitor concentration 100 nM; read-out: Inhibition of rec. 17β-HSD1 (% inhibition)
// bucketize inhibition at 0.1 µM: interval 1 = under 40%, interval 2 = from 40% up to 50%, interval 3 = 50% and over

Example results:
Class? Entry: `CCCc1cc2c(cc1O)CC[C@H]1[C@@H]3[C@H](CCCC(=O)N(C)Cc4ccccc4)CC(=O)[C@@]3(C)CC[C@H]21`
interval 3

Class? Entry: `C[C@]12CC[C@@H]3c4ccc(O)cc4CC[C@H]3[C@@H]1[C@H](CCC(=O)NC1CCCCC1)CC2(F)F`
interval 3

Class? Entry: `COCCc1cc2c(cc1O)CC[C@H]1[C@@H]3[C@H](CCCC(=O)NCc4ccccc4)CC(=O)[C@@]3(C)CC[C@H]21`
interval 1

Next:
Class? Entry: `CCOc1cc2c(cc1O)CC[C@H]1[C@@H]3[C@@H](CCCC(=O)Nc4ccc5cn[nH]c5c4)CC(=O)[C@@]3(C)CC[C@H]21`
interval 3

Class? Entry: `CCCc1cc2c(cc1O)CC[C@H]1[C@@H]3[C@H](CCCC(=O)NCc4ccc(F)cc4F)CC(=O)[C@@]3(C)CC[C@H]21`
interval 3

Class? Entry: `CCCc1cc2c(cc1O)CC[C@H]1[C@@H]3[C@H](CCCC(=O)N4CCOCC4)CC(=O)[C@@]3(C)CC[C@H]21`
interval 1

Class? Entry: `C[C@]12CC[C@@H]3c4ccc(OS(=O)(=O)O)cc4CC[C@H]3[C@@H]1[C@H](CCCC(=O)N1CCOCC1)CC2=O`
interval 1

Class? Entry: `COc1cc2c(cc1O)CC[C@H]1[C@@H]3[C@@H](CCCC(=O)Nc4ccc5cn[nH]c5c4)CC(=O)[C@@]3(C)CC[C@H]21`
interval 3

Class? Entry: `C[C@]12CC[C@@H]3c4ccc(O)cc4CC[C@H]3[C@@H]1[C@@H](CCCC(=O)N1CCCCC1)CC2(F)F`
interval 2

Class? Entry: `CCOc1cc2c(cc1O)CC[C@H]1[C@@H]3[C@@H](CCCC(=O)N4CCCCC4)CC(=O)[C@@]3(C)CC[C@H]21`
interval 2

Class? Entry: `Cc1cccc2c(CCNC(=O)CC[C@@H]3CC(F)(F)[C@@]4(C)CC[C@@H]5c6ccc(O)cc6CC[C@H]5[C@H]34)c[nH]c12`
interval 1
